system: K-562 leukemia; experiment: NCI tumour cell line growth inhibition, 48 h
Value kind: TGI

Would you please look over these solved cases?
- Molecule: "CNC(=O)OC1C(O[C@H]2C[C@H]3[C@@H]4CC=C5C[C@@H](O)CC[C@]5(C)[C@H]4CC[C@]3(C)[C@H]2[C@H](C)C(=O)CCC(C)C)OCC(O)C1OC1OCC(O)C(O)C1OC(=O)c1ccc(OC)cc1 (stereo partly drawn)"
  Result: "0.554 µM"
- Molecule: "O=[N+]([O-])C(=C(Nc1ccccc1)Nc1ccccc1)/C(Cl)=C(\\Cl)Br"
  Result: "13.2 µM"
- Molecule: "O=[N+]([O-])c1ccc(/C=C(/c2ccc([N+](=O)[O-])o2)S(=O)(=O)c2ccccc2)o1"
  Result: "10.2 µM"
- Molecule: "COc1ccc(Cl)cc1NC(=O)c1cccc([N+](=O)[O-])c1O"
  Result: "> 100 µM"
- Molecule: "COc1cc(Cl)c2c3c(c(C(=O)c4ccccc4)oc13)CCC2"
  Result: "> 100 µM"

Turning now to a further molecule:
Inquiry: Consider the molecule Cc1n[nH]c(=O)n1/N=C/c1ccncc1 and give its recorded TGI.
Reply text: > 100 µM

Recorded values, source PubChem BioAssay (NCI).
